Reference source: paper PMC6413125

STUDY_SYSTEM: nucleophosmin 1 (NPM1_264–277) (Homo sapiens, UniProt P06748)
Construct: helix H2 of C-terminal domain, residues 264–277 ([…])
PROCEDURE_DETAILS: ESI-MS adducts; IC50 from ThT aggregation assay; CD
PROPERTY_MEASURED: IC50 (µM)
Give just the number in µM; leave the unit off.

Q: Given CSC1=[S+][Pt-2]([Cl])([S+](C)(C)=O)[O]C(c2cccc(O)c2)=C1 (stereo not shown) [compound 1, 1] , state its recorded IC50.
A: 62.3

====

STUDY_SYSTEM: Aβ21–40 (Homo sapiens)
Sequence (P05067 692-711): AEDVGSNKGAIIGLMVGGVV
PROCEDURE_DETAILS: ESI-MS adducts ([…] and […]); IC50 from ThT aggregation assay
PROPERTY_MEASURED: pIC50
Lab note: report pIC50 as minus log10 of the concentration in molar units, number only.

Q: Requested read-out pIC50, target or system Aβ21–40 (Homo sapiens), entry CSC1=[S+][Pt-2]([Cl])([S+](C)(C)=O)[O]C(c2cccc(O)c2)=C1 (stereo not shown) [compound 1, 1]
A: 4.70
